experiment: Toxicity liver stage against HepG2, at 10uM; format: cell-based; parameters: test concentration 10 uM, cell line HepG2-A16-CD81EGFP; conditions: human, HepG2-A16-CD81EGFP cells; read-out: INHIBITION
Catalogue of compounds with associated cytotoxicity at 10 µM
Record the result as number plus unit.

Recorded results for 5 compounds are shown here.
compound | cytotoxicity at 10 µM
COc1ccccc1C(=O)Nc1c(C)cnn1CC1CC1 | -3.47%
O=C(COC1CCCC1)N1CC[C@H]2OCC[C@@]2(COCC2CC2)C1 | 1.52%
CN(Cc1cscn1)C1CCCN(Cc2noc(C3CC3)n2)C1 (centres undefined) | -2.77%
CCn1c(CN(C)C)nnc1C1CCN(Cc2ccncc2)CC1 | 8.18%
CCc1n[nH]c(C2CN(C(=O)COCC(F)(F)F)CCO2)n1 (centres undefined) | -3.48%

Sure, the documented cytotoxicity at 10 µM for C[S+]([O-])c1nncn1CC(=O)c1ccc(Cl)c(Cl)c1 (centres undefined) is -4.34%

###

Entries and their cytotoxicity at 10 µM
test: Toxicity liver stage against HepG2, at 10uM; assay type: cell-based; set-up: test concentration 10 uM, cell line HepG2-A16-CD81EGFP; details: human, HepG2-A16-CD81EGFP cells; read-out: INHIBITION
Supply the numeric figure in %, leaving out any unit text.

Solved entries:
compound | numeric-readout
COc1ccc(OCc2cc(C(=O)N3CCOCC3)n[nH]2)c(Cl)c1 | -3.66
COCCNC(=O)c1cc(C(C)C)nc(N2CCCCC2)n1 | 9.04
CCCN(C(=O)c1csnn1)C1CCCN(Cc2ccccc2)C1 (stereo not drawn) | -4.38
CN(CC(=O)Nc1ccon1)S(=O)(=O)c1cc(Cl)ccc1Cl | 0.424
Cc1ccccc1C(CNc1ncnc2c1CCNC2)N(C)C (stereo not drawn) | 5.31
CC(=O)N1CCN([C@@H]2CC[C@@H](N(C)C(=O)C3CCCCC3)[C@H]2O)CC1 | -10.6
CC(C)(CNC(=O)c1ccco1)CNC(=O)c1ccco1 | -3.97
CN(Cc1ccc(C#N)cc1)Cc1noc(C(C)(C)C)n1 | -2.09

Documented cytotoxicity at 10 µM of O=C(NCC(O)c1ccc(F)c(F)c1)c1cccnc1OCC(F)(F)F (stereo not drawn) : -10.2

Reported cytotoxicity at 10 µM of Cc1nc(C)n(CC2CCCN2CCCOc2ccc(F)cc2)n1 (stereo not drawn) : -6.72

###

test: Toxicity liver stage against HepG2, at 10uM; format: cell-based; design: test concentration 10 uM, cell line HepG2-A16-CD81EGFP; conditions: human, HepG2-A16-CD81EGFP cells; read-out: INHIBITION
measure: cytotoxicity at 10 µM (%)
Field: numeric (%). Do not append units.

Use the examples below as a reference point.
compound | cytotoxicity at 10 µM, %
CCN(CC)[C@@H]1CN(Cc2cnn(C)c2)[C@@H]2COC[C@H]12 | 8.61
COc1ccc(CCNC(=O)NC2CCCC2)cc1OC | -10.9
O=C(c1ccc(NCc2ccco2)nc1)N1CCc2ccccc21 | -4.6
O=C(Cc1ccc2c(c1)OCCO2)N1CCN(c2cnccn2)CC1 | -11.8
CCCn1nc2c(cc1=O)CN(c1ncnc3ccsc13)CC2 | 49.5

Record summary for CN1CC2(CCCN(CCOCc3ccccc3)C2)OC1=O (stereo unspecified) : reported cytotoxicity at 10 µM = -10.4

In plain terms, `CC(C)[C@H](Nc1nc(C2CCCC2)nc2c1cnn2C)C(N)=O` has a documented cytotoxicity at 10 µM of -51.5

Please fill in: cytotoxicity at 10 µM reported for `CN(C)S(=O)(=O)N1CC[C@]2(C[C@H](Oc3ncccc3F)CO2)C1` = 2.47

Memo: `CC(C)CNC(=O)N1C[C@@H]2C[C@H](C(=O)NCc3ccccc3)[C@H](C1)O2` , reported cytotoxicity at 10 µM: -0.924

Field cytotoxicity at 10 µM (entry `CC(C)c1ccc(/C=C/CC(=O)NC2CCS(=O)(=O)CC2)cc1` ) reads 5.5

According to the records, this compound `O=C1CNc2ncnc(Nc3cccc(Cn4cccn4)c3)c2N1` displays cytotoxicity at 10 µM of 19.8

Summary for this compound, `Cn1ncc2c(=O)[nH]c(N3CCN(C(=O)c4ccsc4)CC3)nc21` : cytotoxicity at 10 µM is -6.17

Sample CCOc1ncccc1C(=O)N1CCCC(n2nc(C)cc2C)C1 (stereo unspecified) ; cytotoxicity at 10 µM observed: -5.54

Recorded cytotoxicity at 10 µM (compound `CCOc1ncccc1NC(=O)N1CCN(Cc2ccncc2)CC1` ): -2.54

Lookup result for Cc1nc(CN2CCC3(CCCN(C(=O)c4cnccn4)C3)C2)cs1 (stereo unspecified) ; measured cytotoxicity at 10 µM: -147

cytotoxicity at 10 µM for `Cc1nc(-c2nnc[nH]2)sc1C(=O)N(Cc1cccnc1)C1CC1` is -5.79

Recorded result, `O=C1CO[C@@H]2CN(Cc3cccs3)C[C@H]2N1Cc1ccncc1` , cytotoxicity at 10 µM: 2.08

Where do the numbers come from? From ChEMBL document CHEMBL4513216.
